assay: self-splicing fitness, log relative to wild type (ln ratio); higher = more splicing; Tetrahymena group I intron in knt gene, E. coli kanamycin selection, DiMSum; sequences stand for … in CUCUCU…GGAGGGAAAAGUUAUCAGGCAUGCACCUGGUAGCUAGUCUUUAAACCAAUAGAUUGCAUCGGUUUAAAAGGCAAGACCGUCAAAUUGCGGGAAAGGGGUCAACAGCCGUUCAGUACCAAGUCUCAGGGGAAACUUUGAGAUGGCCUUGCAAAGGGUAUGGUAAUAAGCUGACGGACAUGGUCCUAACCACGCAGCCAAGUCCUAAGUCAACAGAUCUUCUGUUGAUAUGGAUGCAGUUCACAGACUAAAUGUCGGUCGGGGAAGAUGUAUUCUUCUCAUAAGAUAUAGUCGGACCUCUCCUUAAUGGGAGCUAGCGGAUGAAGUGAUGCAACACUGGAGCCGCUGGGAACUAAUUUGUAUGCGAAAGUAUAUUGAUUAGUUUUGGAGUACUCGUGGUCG; settings: 37 °C;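 also: selection with 25 µg/mL kanamycin versus none on LB agar overnight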
Kindly state self-splicing fitness (ln) for each of the entries shown.
Numbers only.

Before answering, review these 3 worked examples.
>>> print(df.to_string())
         sequence_chain              property_label  recorded_number
0  CAAUAGCAAUAUUACGGCUU  self-splicing fitness (ln)            -1.42
1  AAAGAGCAAUAUUACGACGG  self-splicing fitness (ln)            -2.83
2  UCCUAGCAAUAUUACGGUGC  self-splicing fitness (ln)            -2.36

I have 5 sequences here; please give me self-splicing fitness (ln) for each one.
1. UUACAGCAAUAUUACGUAAU
2. CUCCAGCAAUAUUACGCGCG
3. ACAAAGCAAUAUUACGACUU
4. AGGCAGCAAUAUUACGAUUA
5. CAGGAGCAAUAUUACGUUAU

Result:
[-2.32, -0.928, 0.0905, -0.936, -2.71]
